Can you tell me kon for the items I'm about to list?
EXPERIMENTAL_SYSTEM: T1, recombinant human TGF-β RII/Fc chimera protein (human, UniProt P37173 24-159)
T1 construct: range 24-159; Made in HEK-F cells; Biotinylated where it was put on SA chips, otherwise captured by anti-human IgG; also called human TGFbRII/Fc; hRII-Fc; not shown: Fc region of human IgG1
T1 sequence (P37173 24-159 limits assumed, change not shown): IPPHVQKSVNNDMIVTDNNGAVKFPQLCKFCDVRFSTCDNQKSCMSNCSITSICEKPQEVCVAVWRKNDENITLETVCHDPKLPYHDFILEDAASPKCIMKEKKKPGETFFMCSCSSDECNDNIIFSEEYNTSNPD
ASSAY_METHOD_TEXT: SPR Biacore T200, receptor-Fc captured by anti-human IgG, dAb as analyte, 1:1 model
# number only, unit M⁻¹ s⁻¹ dropped from output

The binder DOM23h-271-129 (VHH, expressed from pC10) VHH: EVQLLESGGGLVQPGGSLRLSCAASGSTFTEYRMWWVRQAPGKGLEWVSAIEPIGHRTYYADSVKGRFTISRDNSKNTLYLQMNSLRAEDTAVYYCAKQAPNQRYVARGRLDYWGQGTLVTVSS showed kon equal to 5.55e+06

The binder DOM23h-439-41 (DOM23h-439-25 + C-terminal Alanine + 48I) (VHH, human VH dAb) VHH: EVQLLESGGGLVQPGGSLRLSCAASGFTFGTEQMWWVRQAPGKGLEFISRIDSPGGRTYYADSVKGRFTISRDNSKNTLYLQMNSLRAEDTAVYYCAKRRPTGVSGTFYDYWGQGTLVTVSS showed kon equal to 1.81e+07

The binder DOM23h-271-131 (DOM23h-271-123 + C-terminal Alanine + 61N) (VHH, human VH dAb) VHH: EVQLLESGGGLVQPGGSLRLSCAASGSTFTEYRMWWVRQAPGKGLEWVSAIEPIGHRTYYANSVKGRFTISRDNSKNTLYLQMNSLRAEDTAVYYCAKQAPGEKWARRWDLDYWGQGTLVTVSS showed kon equal to 6.26e+06

The binder DOM23h-439-43 (DOM23h-439-25 + C-terminal Alanine + 64R) (VHH, human VH dAb) VHH: EVQLLESGGGLVQPGGSLRLSCAASGFTFGTEQMWWVRQAPGKGLEFVSRIDSPGGRTYYADSVRGRFTISRDNSKNTLYLQMNSLRAEDTAVYYCAKRRPTGVSGTFYDYWGQGTLVTVSS showed kon equal to 8.83e+06

Data credit: patent US20150361176A1
